Molecular target: Amine oxidase [flavin-containing] B (Homo sapiens, UniProt P27338)
Sequence (P27338 whole entry): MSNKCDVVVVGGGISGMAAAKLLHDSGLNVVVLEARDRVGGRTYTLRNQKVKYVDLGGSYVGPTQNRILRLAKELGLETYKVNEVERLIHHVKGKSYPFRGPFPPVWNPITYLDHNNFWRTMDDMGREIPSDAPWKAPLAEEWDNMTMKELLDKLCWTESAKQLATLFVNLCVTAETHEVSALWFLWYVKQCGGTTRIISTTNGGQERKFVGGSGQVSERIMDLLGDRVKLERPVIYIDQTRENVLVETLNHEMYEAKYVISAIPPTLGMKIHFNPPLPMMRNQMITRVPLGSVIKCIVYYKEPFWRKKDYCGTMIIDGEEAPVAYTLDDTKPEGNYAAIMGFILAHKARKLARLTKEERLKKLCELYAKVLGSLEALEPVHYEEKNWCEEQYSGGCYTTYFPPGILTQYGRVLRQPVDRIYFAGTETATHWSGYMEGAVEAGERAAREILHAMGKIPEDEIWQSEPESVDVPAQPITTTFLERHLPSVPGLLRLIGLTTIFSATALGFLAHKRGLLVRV
Experiment: Inhibition of recombinant MAO-B (unknown origin) at 20 uM preincubated for 30 mins followed substrate addition by Amplex Red reagent based fluorescence analysis relative to control
// label = Met if inhibition at 20 µM is not less than 40%, otherwise Not met

C#CCCOc1c(CN2CCN(c3ccccc3)CC2)cc(-c2cc(=O)c3ccccc3o2)cc1OC | Not met

Ask | API: above_or_equal(metric=inhibition at 20 µM, cutoff=40%) for item C#CCCCOc1c(CN2CCN(c3ccccc3)CC2)cc(-c2cc(=O)c3ccccc3o2)cc1OC
Reply | Not met

Ask | API: above_or_equal(metric=inhibition at 20 µM, cutoff=40%) for item C#CCCCOc1c(CN2CCCCC2)cc(-c2cc(=O)c3ccccc3o2)cc1CN1CCCCC1
Reply | Not met

Ask | API: above_or_equal(metric=inhibition at 20 µM, cutoff=40%) for item C#CCCCOc1c(CN2CCCCC2)cc(-c2cc(=O)c3ccccc3o2)cc1OC
Reply | Not met

###

Target: Amyloid-beta precursor protein (Homo sapiens) (UniProt P05067)
Sequence (P05067 whole entry, the tested form may be a part): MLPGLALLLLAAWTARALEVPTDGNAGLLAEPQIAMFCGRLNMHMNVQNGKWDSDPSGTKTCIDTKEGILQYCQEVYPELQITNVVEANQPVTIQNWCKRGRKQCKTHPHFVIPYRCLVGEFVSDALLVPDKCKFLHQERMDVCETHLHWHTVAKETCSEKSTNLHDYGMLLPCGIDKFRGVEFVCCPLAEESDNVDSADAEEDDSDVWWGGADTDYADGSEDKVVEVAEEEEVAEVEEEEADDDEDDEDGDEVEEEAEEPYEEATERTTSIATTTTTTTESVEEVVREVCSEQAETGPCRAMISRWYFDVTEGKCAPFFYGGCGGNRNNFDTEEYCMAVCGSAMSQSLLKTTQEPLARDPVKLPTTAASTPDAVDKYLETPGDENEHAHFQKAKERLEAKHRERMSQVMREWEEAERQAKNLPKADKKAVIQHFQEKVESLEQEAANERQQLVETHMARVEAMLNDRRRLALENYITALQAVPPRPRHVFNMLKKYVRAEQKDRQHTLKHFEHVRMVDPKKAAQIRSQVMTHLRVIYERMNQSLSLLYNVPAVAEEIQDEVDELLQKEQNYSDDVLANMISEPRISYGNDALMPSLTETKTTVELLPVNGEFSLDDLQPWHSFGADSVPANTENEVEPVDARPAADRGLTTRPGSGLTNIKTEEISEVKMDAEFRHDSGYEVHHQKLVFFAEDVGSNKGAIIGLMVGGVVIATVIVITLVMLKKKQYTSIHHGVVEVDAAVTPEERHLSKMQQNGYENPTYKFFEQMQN
Assay: Inhibition of self-induced amyloid beta (1 to 42 residues) (unknown origin) aggregation at 20 uM incubated at 48 hrs by fluorimetry-based thioflavin T assay
// label = satisfied if inhibition is not less than 20%, otherwise not satisfied

Some solved cases for reference:
C#CCOc1c(CN2CCOCC2)cc(-c2cc(=O)c3ccccc3o2)cc1OC | satisfied
C#CCCOc1c(CN2CCOCC2)cc(-c2cc(=O)c3ccccc3o2)cc1OCC | satisfied
C#CCCCOc1c(CN2CCOCC2)cc(-c2cc(=O)c3ccccc3o2)cc1CN1CCOCC1 | satisfied
C#CCCCOc1c(CN2CCCCC2)cc(-c2cc(=O)c3ccccc3o2)cc1CN1CCCCC1 | not satisfied
C#CCCCOc1ccc(-c2cc(=O)c3ccccc3o2)cc1CN1CCCCC1 | satisfied
C#CCCCOc1c(CN2CCN(Cc3ccccc3)CC2)cc(-c2cc(=O)c3ccccc3o2)cc1OC | satisfied
C#CCOc1c(CN2CCCCC2)cc(-c2cc(=O)c3ccccc3o2)cc1OC | satisfied
C#CCOc1ccc(-c2cc(=O)c3ccccc3o2)cc1CN1CCOCC1 | not satisfied

Continue with the next compound.
Ask | API: above_or_equal(metric=inhibition, cutoff=20%) for item C#CCOc1c(CN2CCOCC2)cc(-c2cc(=O)c3ccccc3o2)cc1CN1CCOCC1
Reply | satisfied

###

Biological target: Acetylcholinesterase (Homo sapiens, UniProt P22303)
Sequence (P22303 whole entry): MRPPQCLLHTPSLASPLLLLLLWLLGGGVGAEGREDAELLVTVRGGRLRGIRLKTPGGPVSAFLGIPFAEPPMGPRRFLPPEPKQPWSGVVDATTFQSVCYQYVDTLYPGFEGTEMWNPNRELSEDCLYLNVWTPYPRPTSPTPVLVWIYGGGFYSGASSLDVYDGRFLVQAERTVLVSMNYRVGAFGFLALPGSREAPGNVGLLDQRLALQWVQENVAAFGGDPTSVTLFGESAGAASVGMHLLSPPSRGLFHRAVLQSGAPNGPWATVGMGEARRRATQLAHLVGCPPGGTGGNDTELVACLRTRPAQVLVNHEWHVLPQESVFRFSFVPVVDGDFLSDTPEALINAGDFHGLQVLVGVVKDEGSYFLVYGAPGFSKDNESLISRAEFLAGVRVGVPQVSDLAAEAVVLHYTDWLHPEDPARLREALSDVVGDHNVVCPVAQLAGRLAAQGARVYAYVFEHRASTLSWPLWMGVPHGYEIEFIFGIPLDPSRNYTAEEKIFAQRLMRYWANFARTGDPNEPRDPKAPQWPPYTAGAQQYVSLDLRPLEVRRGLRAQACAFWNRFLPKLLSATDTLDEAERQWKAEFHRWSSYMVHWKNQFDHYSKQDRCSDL
Quantity Name: pIC50
Would you please state pIC50, meaning minus log10 of the concentration in mol/L, as a bare number?

Ask | Return pIC50 for the following molecule: O=C(NCCC1CCN(Cc2ccccc2)CC1)c1coc2cc(OCc3ccccc3)ccc2c1=O
Reply | 6.43

###

Biological target: Cholinesterase (Homo sapiens)
Sequence (P06276 whole entry): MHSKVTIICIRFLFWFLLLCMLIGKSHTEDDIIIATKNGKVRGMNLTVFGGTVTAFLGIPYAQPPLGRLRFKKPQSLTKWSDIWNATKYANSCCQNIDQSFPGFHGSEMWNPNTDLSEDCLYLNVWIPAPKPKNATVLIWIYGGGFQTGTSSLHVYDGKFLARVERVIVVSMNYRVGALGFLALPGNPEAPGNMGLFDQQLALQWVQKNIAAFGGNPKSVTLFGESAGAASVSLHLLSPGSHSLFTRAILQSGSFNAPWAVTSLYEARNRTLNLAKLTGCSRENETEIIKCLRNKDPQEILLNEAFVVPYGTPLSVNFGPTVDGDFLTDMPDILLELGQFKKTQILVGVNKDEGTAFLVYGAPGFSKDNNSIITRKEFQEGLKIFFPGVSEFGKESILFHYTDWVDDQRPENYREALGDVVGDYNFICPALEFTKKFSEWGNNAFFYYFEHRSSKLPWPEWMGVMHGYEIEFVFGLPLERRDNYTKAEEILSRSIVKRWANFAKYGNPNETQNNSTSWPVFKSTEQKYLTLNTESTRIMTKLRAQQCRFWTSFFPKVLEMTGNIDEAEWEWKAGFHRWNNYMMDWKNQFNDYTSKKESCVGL
Experiment: Inhibition of recombinant BuChE (unknown origin) using BTCI as substrate preincubated for 30 mins followed by substrate addition by TECAN multiplate reader analysis
Reported IC50 values for a set of compounds
Give the figure together with its unit, number first.

Worked examples, 2 compounds total:
C#CCOc1c(CN2CCCCC2)cc(-c2cc(=O)c3ccccc3o2)cc1OC | 1.95 µM
C#CCCCOc1c(CN2CCc3ccccc3C2)cc(-c2cc(=O)c3ccccc3o2)cc1OC | 18.9 µM

Next:
Ask | Return IC50 for the following compound: C#CCCCOc1ccc(-c2cc(=O)c3ccccc3o2)cc1CN1CCCCC1
Reply | 11 µM
